Measured LDH accompanies every entry in the list below.
Species: Rattus norvegicus
Test: Open TG-GATES - Regimen: Daily Repeat
Assay type: toxicity, organism-based, Sprague-Dawley
Design: regimen Daily Repeat, gender Male, age 6 weeks
Details: in vivo, po, 0 mg/kg, […], tissue Plasma, route gavage, dose level Control, time 14 day
endpoint: LDH (IU/L)

[[record]]
molecule = "O=C(O)c1cn(C2CC2)c2cc(N3CCNCC3)c(F)cc2c1=O [CIPROFLOXACIN]"
observed_value = 80.6

[[record]]
molecule = "CCc1cc(C(N)=S)ccn1 [ETHIONAMIDE]"
observed_value = 68.6

[[record]]
molecule = "NC(=O)N1c2ccccc2C=Cc2ccccc21 [CARBAMAZEPINE]"
observed_value = 204.6

[[record]]
molecule = "CC(=O)Oc1ccccc1C(=O)O [ASPIRIN]"
observed_value = 220.2

[[record]]
molecule = "Cn1c(=O)c2[nH]cnc2n(C)c1=O.O [THEOPHYLLINE]"
observed_value = 184.4

[[record]]
molecule = "CSc1ccc2c(c1)N(CCC1CCCCN1C)c1ccccc1S2 (stereo not given) [THIORIDAZINE]"
observed_value = 96.8

[[record]]
molecule = "NC(=O)N/N=C/c1ccc([N+](=O)[O-])o1 [NITROFURAZONE]"
observed_value = 70

[[record]]
molecule = "CCCC(CCC)C(=O)O [VALPROIC ACID]"
observed_value = 198.8

[[record]]
molecule = "COc1ccc2c(c1)c(CC(=O)O)c(C)n2C(=O)c1ccc(Cl)cc1 [INDOMETHACIN]"
observed_value = 82.6

[[record]]
molecule = "COc1ccc(Cc2nccc3cc(OC)c(OC)cc23)cc1OC [PAPAVERINE]"
observed_value = 164.6


====

Organism: Rattus norvegicus
Test: Open TG-GATES - Regimen: Single
Type: toxicity, organism-based, Sprague-Dawley
Parameters: regimen Single, gender Male, age 6 weeks
Settings: in vivo, po, 300 mg/kg, 6 h, tissue Kidney, route gavage, dose level Middle
Recorded measurements of KIDNEY_TOTAL, one per entry
endpoint: KIDNEY_TOTAL

[[record]]
compound = "O=C(O)c1cc(/N=N/c2ccc(S(=O)(=O)Nc3ccccn3)cc2)ccc1O [SULFASALAZINE]"
observed_value = "1.9 g"

[[record]]
compound = "C[C@H](CS)C(=O)N1CCC[C@H]1C(=O)O [CAPTOPRIL]"
observed_value = "2 g"

[[record]]
compound = "Clc1ccccc1CN1CCc2sccc2C1 [TICLOPIDINE]"
observed_value = "1.9 g"

[[record]]
compound = "O=C(O)c1cn(C2CC2)c2cc(N3CCNCC3)c(F)cc2c1=O [CIPROFLOXACIN]"
observed_value = "1.7 g"

[[record]]
compound = "CCc1cc(C(N)=S)ccn1 [ETHIONAMIDE]"
observed_value = "2 g"


====

Organism: Rattus norvegicus
Assay: Open TG-GATES - Regimen: Single
Format: toxicity, organism-based, Sprague-Dawley
Design: regimen Single, gender Male, age 6 weeks
Details: in vivo, po, 0 mg/kg, 6 h, tissue Blood, route gavage, dose level Control
endpoint: Lym (%)

[[record]]
chemical_string = "O=C(O)c1cn(C2CC2)c2cc(N3CCNCC3)c(F)cc2c1=O"
observed_value = 77

[[record]]
chemical_string = "O=C(O)c1cc(/N=N/c2ccc(S(=O)(=O)Nc3ccccn3)cc2)ccc1O"
observed_value = 75.8

[[record]]
chemical_string = "Clc1ccccc1CN1CCc2sccc2C1"
observed_value = 73

[[record]]
chemical_string = "CN(C)CCC=C1c2ccccc2CCc2ccccc21"
observed_value = 72.6

[[record]]
chemical_string = "CC(=O)Oc1ccccc1C(=O)O"
observed_value = 77.2

[[record]]
chemical_string = "Cn1c(=O)c2[nH]cnc2n(C)c1=O.O"
observed_value = 82.2

